target: human ACVR2A (human, UniProt P27037 20-135, limits assumed); assay: ELISA; also: test concentration or dose not given here
Sequence (P27037 20-135 limits assumed): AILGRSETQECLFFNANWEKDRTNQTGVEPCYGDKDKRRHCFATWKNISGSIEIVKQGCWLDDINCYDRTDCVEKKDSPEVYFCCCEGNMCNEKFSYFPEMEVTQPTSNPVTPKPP
Quick reference: optical density of the listed items.

BINDER	VALUE_UNIT	optical density
369_C10 (antibody, V domains shown, VH/VL only) VH: EVQLLESGGGLVQPGGSLRLSCAASGFTFSSYSMNWVRQAPGKGLEWVANINYNGGYTSYADSVKGRFTISRDNSKNTLYLQMNSLRAEDTAVYYCARSATWHDTALDYWGQGTLVTVSS VL: DIQMTQSPSSLSASVGDRVTITCRASQSIVTYLNWYQQKPGKAPKLLIYAATSLHSGVPSRFSGSGSGTDFTLTISSLQPEDFATYYCQQSDSLPLTFGGGTKVEIK	OD	2.48
374_H07 (antibody, V domains shown, VH/VL only) VH: EVQLLESGGGLVQPGGSLRLSCAASGFTFDSYGMNWVRQAPGKGLEWVANINYNGGYTGYADSVKGRFTISRDNSKNTLYLQMNSLRAEDTAVYYCARSANWHDTALDYWGQGTLVTVSS VL: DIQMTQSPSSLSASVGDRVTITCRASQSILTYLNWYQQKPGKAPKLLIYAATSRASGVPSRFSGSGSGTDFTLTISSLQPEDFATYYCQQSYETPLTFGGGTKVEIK	OD	3.24
